- Test system: RAW-Dual (murine macrophage reporter line)
- method_summary: viability score (confluency relative to resting cells, overnight) (fraction); higher = more viable, active = viable (0.7 or more)
- condition: modulator concentration 10 µM
Classes used: Y = active, N = inactive

>>> print(df.to_string())
                                   compound  label_class
0  O=C(NN=Cc1ccccc1C(F)(F)F)c1ccc(=O)[nH]n1            Y
1  CN1CC[C@H](c2c(O)cc(O)c3c(=O)cc(-c4ccccc4Cl)oc23)[C@H](O)C1            N
2   COc1cccc(C=Nc2cccc([N+](=O)[O-])c2C)c1O            Y
3  CCC1(C)CC(CCN)(c2ccc(C)cc2)CCO1 (stereo unspecified)            Y
4    Cc1ccccc1OCC(O)CO (stereo unspecified)            Y
5  CC[C@@H]([C@H](C)O)n1ncn(-c2ccc(N3CCN(c4ccc(OC[C@@H]5CO[C@@](Cn6cncn6)(c6ccc(F)cc6F)C5)cc4)CC3)cc2)c1=O            Y

* * *

Listing of entries alongside the reported NF-kB reporter.
- Test system: RAW-Dual (murine macrophage reporter line)
- method_summary: NF-kB reporter (SEAP) activity fold change vs agonist alone; higher = enhanced NF-kB activity
- condition: modulator concentration 10 µM; agonist: MPLA […]
property: NF-kB reporter

                                    compound        property  assay_result
 0  CN(C)CC(c1ccc(O)cc1)C1(O)CCCCC1 (centres undefined)  NF-kB reporter         0.893
 1            CC(=O)O.CCN(CC)CC#CC1(O)CCCCC1  NF-kB reporter         0.914
 2  COc1ccc(C2Nc3ccccc3-c3nnc(SCc4ccc(C)cc4)nc3O2)cc1C (centres undefined)  NF-kB reporter         0.919
 3  COc1cc2nc(N3CCN(C(=O)C4CCCO4)CC3)nc(N)c2cc1OC.Cl (centres undefined)  NF-kB reporter         0.904
 4  CN(C)C(CNC(=O)NCc1ccc(Cl)cc1)c1ccc2c(c1)CCO2 (centres undefined)  NF-kB reporter         0.937
 5  COC(=O)C1=CN(CC2CCCO2)C=C(C(=O)OC)C1c1ccsc1 (centres undefined)  NF-kB reporter          1.12
 6  COc1ccc(N(CC(=O)NCCc2ccc(OC)c(OC)c2)S(=O)(=O)c2ccc(OC)c(OC)c2)cc1  NF-kB reporter         0.934
 7  c1cn2cc(-c3ccc4cn[nH]c4c3)nc(Nc3ccc(N4CCOCC4)cc3)c2n1  NF-kB reporter          1.25
 8       CN(C)CC#CCNC(=O)Nc1ccc(C(F)(F)F)cc1  NF-kB reporter         0.874
 9       O=C(O)c1coc(CNC(=O)c2cocc2C(=O)O)c1  NF-kB reporter         0.902
10  COc1cccc(C2Nc3ccccc3-c3nnc(SC)nc3O2)c1OCC(=O)O (centres undefined)  NF-kB reporter         0.864
11  Cc1nc(Nc2ncc(C(=O)Nc3c(C)cccc3Cl)s2)cc(N2CCN(CCO)CC2)n1.Cl  NF-kB reporter          1.06
12           COc1cc(=O)n(C)cc1C(=O)Nc1cccnc1  NF-kB reporter          1.06
13                 COCCCNC(=O)CSc1ccc(Cl)cc1  NF-kB reporter         0.952

The reported measurements were obtained from the supplement of paper PMC10646978.
